# Tested on: Vero E6 infected with SARS-CoV-2
# Experimental Details: inhibition of SARS-CoV-2 cytopathic effect; higher = more antiviral protection, active = above 15
# Details: 10000 nM; 48 h
Attribute: inhibition of SARS-CoV-2 cytopathic effect
All answers are understood in %, so give the number only.

As a guide, the following entries are already answered.
Molecule: NC(=O)c1ncn([C@@H]2O[C@H](CO)[C@@H](O)[C@H]2O)c1O [mizoribine]
Measured: -1.77
--
Molecule: CC(C)[C@H]1c2ccc(F)cc2CC[C@@]1(CCN(C)CCCc1nc2ccccc2[nH]1)OC(=O)C1CC1
Measured: -19.3
--
Molecule: NC(=O)c1ccc(-c2nc(-c3ccccn3)c(-c3ccc4c(c3)OCO4)[nH]2)cc1
Measured: -3.14
--
Molecule: CCCNC(=O)NS(=O)(=O)c1ccc(Cl)cc1 [chlorpropamide]
Measured: -2.67
--
Molecule: CC(=O)N(CC(C)C(=O)O)c1c(I)cc(I)c(N)c1I (configuration not stated) [iocetamic-acid]
Measured: 3.4

Which value of inhibition of SARS-CoV-2 cytopathic effect has been reported for CCCCC(F)(F)[C@@]1(O)CC[C@H]2[C@@H](CC(=O)[C@@H]2CCCCCCC(=O)O)O1 [lubiprostone] in the records?
-0.01

And the next one, Nc1ccc(C(=O)Nc2cccc(-c3nc(N4CCOCC4)c4oc5ncccc5c4n3)c2)cn1 ?
20.4

And the next one, CCOC(=O)Nc1nc2ccccc2[nH]1 [lobendazole] ?
-11.2

And the next one, CC(=O)Oc1ccccc1C(=O)Oc1cccc(CO[N+](=O)[O-])c1 ?
3.31

And the next one, O=S(=O)(O)c1cc(O)ccc1O [etamsylate] ?
1.8

And the next one, C[C@@H]1CN(Cc2ccc(F)cc2)[C@@H](C)CN1C(=O)c1cc2c(C(=O)C(=O)N(C)C)cn(C)c2cc1Cl [talmapimod] ?
-1.11

And the next one, Clc1cccc(-c2nnnn2Cc2cccnc2)c1Cl ?
-3.45

----------
# Tested on: Vero E6 infected with SARS-CoV-2
# Experimental Details: morphology score (similarity to uninfected cells); higher = more like uninfected cells
# Details: 24 h
Readout Label: morphology score
Give the value as a plain number.

Molecule: CN1C/C=C/CCOc2cccc(c2)-c2ccnc(n2)Nc2cccc(c2)C1 (10 µM)
Readout Label: morphology score
Measured: -0.0856
--
Molecule: CCCN1CCCC(c2cccc(O)c2)C1 (stereo in doubt) [preclamol] (10 µM)
Readout Label: morphology score
Measured: -0.1
--
Molecule: On1ncc(C2CCNCC2)c1-c1cccc(-c2ccccc2)c1 (10 µM)
Readout Label: morphology score
Measured: 0.0231

Which value of morphology score has been reported for C[C@H](NC(=O)/C(C#N)=C/c1cccc(Br)n1)c1ccccc1 (0.833333 µM) in the records?
-0.0278

And the next one, Oc1cc2c(c(Cl)c1O)CCNCC2c1ccccc1 (configuration not stated) (10 µM) ?
0.16

And the next one, Nc1nc(=O)c(Br)c(-c2ccccc2)[nH]1 [bropirimine] (10 µM) ?
0.109

And the next one, N=C(N)NC(=O)c1cnn(-c2cccc3ncccc23)c1C1CC1 [zoniporide] (10 µM) ?
0.127

----------
# Tested on: Vero E6 infected with SARS-CoV-2
# Experimental Details: inhibition of SARS-CoV-2 cytopathic effect; higher = more antiviral protection, active = above 15
# Details: 8.33 nM; 48 h
Attribute: inhibition of SARS-CoV-2 cytopathic effect
All answers are understood in %, so give the number only.

Compound: CC1(C)[C@@H](O)CC[C@]2(C)[C@H]3C(=O)C=C4[C@@H]5C[C@@](C)(C(=O)O)CC[C@]5(C)CC[C@@]4(C)[C@]3(C)CC[C@@H]12 [enoxolone]
Measured: -3.58
--
Compound: CC(=O)OC[C@H]1O[C@@](COC(C)=O)(O[C@H]2O[C@H](COC(C)=O)[C@@H](OC(C)=O)[C@H](OC(C)=O)[C@H]2OC(C)=O)[C@@H](OC(C)=O)[C@@H]1OC(C)=O [sucrose-octaacetate]
Measured: 1.07

Tell me reported inhibition of SARS-CoV-2 cytopathic effect for C=C(CC)C(=O)c1ccc(OCC(=O)O)c(Cl)c1Cl [etacrynic-acid] , tested with Vero E6 infected with SARS-CoV-2.
2.25

And the next one, Cc1c(NC(=O)c2cc3c(s2)CCCC3)cccc1-c1cn(C)c(=O)c(Nc2ccc(C3C(=O)N(C)CCN3C)cc2)n1 (stereo in doubt) ?
-3.85

And the next one, Cc1ncc([N+](=O)[O-])n1CCO [metronidazole] ?
-0.45

And the next one, CC(C)N1Cc2cc(S(C)(=O)=O)ccc2N(CCN2CC=C(c3c[nH]c4cc(F)ccc34)CC2)S1(=O)=O ?
5.05

And the next one, CC(C)(Oc1ccc(Cl)cc1)C(=O)N1CSCC1C(=O)O (configuration not stated) [timofibrate] ?
4.22

----------
# Tested on: Vero E6 infected with SARS-CoV-2
# Experimental Details: inhibition of SARS-CoV-2 cytopathic effect; higher = more antiviral protection, active = above 15
# Details: 10000 nM; 48 h
Attribute: inhibition of SARS-CoV-2 cytopathic effect
All answers are understood in %, so give the number only.

As a guide, the following entries are already answered.
Compound: C#CCC(Cc1cnc2nc(N)nc(N)c2n1)c1ccc(C(=O)N[C@@H](CCC(=O)O)C(=O)O)cc1 (stereo partly specified) [pralatrexate]
Target Or System: Vero E6 infected with SARS-CoV-2
Measured: -6.91
//
Compound: CCCC(C)(COC(N)=O)COC(=O)NC(C)C (stereo unspecified)
Target Or System: Vero E6 infected with SARS-CoV-2
Measured: 0.83
//
Compound: COc1ccc(-c2oc3cc(OC)ccc3c2C(=O)c2ccc(C#N)cc2)cc1
Target Or System: Vero E6 infected with SARS-CoV-2
Measured: 1.7
//
Compound: CC[C@@H](CO)NC(=O)[C@@H]1C=C2c3cccc4[nH]cc(c34)C[C@H]2N(C)C1
Target Or System: Vero E6 infected with SARS-CoV-2
Measured: 0
//
Compound: COc1ccccc1Oc1c(NS(=O)(=O)c2ccc(C)cn2)nc(-c2ccncc2)nc1OC
Target Or System: Vero E6 infected with SARS-CoV-2
Measured: -4.64

Now for the compound whose inhibition of SARS-CoV-2 cytopathic effect we want.
Which value of inhibition of SARS-CoV-2 cytopathic effect has been reported for Nc1ccc(-c2nc3ccc(-c4nc5ccc(N)cc5[nH]4)cc3[nH]2)cc1 in the records?
6.35

----------
# Test system: Vero E6 infected with SARS-CoV-2
# Experimental Details: inhibition of SARS-CoV-2 cytopathic effect; higher = more antiviral protection, active = above 15
# Details: 100 nM; 48 h
Attribute: inhibition of SARS-CoV-2 cytopathic effect
All answers are understood in %, so give the number only.

As a guide, the following entries are already answered.
Compound: CC(=O)NO [acetohydroxamic-acid]
Measured: -3.04

Compound: N#Cc1c(N)nc(SCc2csc(-c3ccc(Cl)cc3)n2)c(C#N)c1-c1ccc(OCCO)cc1
Measured: -1.11

Compound: N=C(N)NC(=O)c1cnn(-c2cccc3ncccc23)c1C1CC1 [zoniporide]
Measured: 1.14

Now for the compound whose inhibition of SARS-CoV-2 cytopathic effect we want.
Which value of inhibition of SARS-CoV-2 cytopathic effect has been reported for COc1ccc(S(=O)(=O)N2CCC[C@H]2C(=O)Nc2cc(C)cc(C)c2)cc1 in the records?
-5.02

----------
# System: Vero E6 infected with SARS-CoV-2
# Experimental Details: SARS-CoV-2 infection rate relative to infected DMSO; higher = more infection, active = 60 or less
# Details: 24 h
Returns: one label drawn from 1.0 for active, 0.0 for inactive

// outcome(item) with item = CCOC(=O)[C@H](Cc1ccc([N+](=O)[O-])cc1)NC(=O)c1ccccc1 (10 µM)
0.0

And the next one, OC(CCN1CCCCC1)(c1ccccc1)C1CC2C=CC1C2 (centres undefined) [biperiden] (10 µM) ?
0.0

And the next one, O=C(Nc1nc(-c2cc(Cl)cs2)c(N2CCN(C3CCCCC3)CC2)s1)c1cnc(N2CCC(C(=O)O)CC2)c(Cl)c1 [avatrombopag] (10 µM) ?
0.0

And the next one, Cc1cc(N2CCOCC2)cc2[nH]c(-c3c(NC[C@@H](O)c4cccc(Cl)c4)cc[nH]c3=O)nc12 (0.833333 µM) ?
0.0

And the next one, C[N+](C)(C)CC(=O)O [betaine] (10 µM) ?
0.0

----------
Attribute: inhibition of SARS-CoV-2 cytopathic effect
# Test system: Vero E6 infected with SARS-CoV-2
# Experimental Details: inhibition of SARS-CoV-2 cytopathic effect; higher = more antiviral protection, active = above 15
# Details: 100 nM; 48 h

As a guide, the following entries are already answered.
Molecule: C/C(=C\C(=O)OCCCCCCCCC(=O)O)C[C@@H]1OC[C@H](C[C@@H]2O[C@H]2[C@@H](C)[C@H](C)O)[C@@H](O)[C@H]1O
Measured: 0.52% (inactive)
--
Molecule: COc1ccc2cc(CCC(C)=O)ccc2c1
Measured: -4.19% (inactive)
--
Molecule: COc1ccc(C(C)=O)c(O)c1
Measured: 2.76% (inactive)
--
Molecule: O=C1N(c2ccccc2)c2ccccc2C1(Cc1ccncc1)Cc1ccncc1
Measured: 1.23% (inactive)
--
Molecule: O=C(O)c1cc(/N=N/c2ccc(O)c(C(=O)O)c2)ccc1O
Measured: 0.75% (inactive)
--
Molecule: Cc1nc2ccc(-n3ncc(C(=O)c4cc5ccccc5[nH]4)c3N)cc2[nH]1
Measured: 0.12% (inactive)
--
Molecule: CN1C[C@H](CNC(=O)OCc2ccccc2)C[C@@H]2c3cccc4c3c(cn4C)C[C@H]21
Measured: -4.21% (inactive)
--
Molecule: O=C1NC(=O)C(c2ccccc2)(c2ccccc2)N1
Measured: -0.76% (inactive)

Tell me reported inhibition of SARS-CoV-2 cytopathic effect for CC[C@H](/C=C/[C@@H](C)[C@H]1CC[C@H]2[C@@H]3CC=C4C[C@@H](O)CC[C@]4(C)[C@H]3CC[C@]12C)C(C)C [Stigmasterol (Stigmasterin)] , tested with Vero E6 infected with SARS-CoV-2.
0.44% (inactive)

And the next one, CC(C)[C@H](N)C(=O)OCCOCn1cnc2c(=O)nc(N)[nH]c21 ?
1.58% (inactive)

And the next one, NC[C@@H](O)CC(=O)O [aminohydroxybutyric-acid] ?
-2.52% (inactive)

And the next one, NCC1OC(C23CC4CC(CC(C4)C2)C3)Cc2c1ccc(O)c2O (configuration not stated) ?
2.31% (inactive)

And the next one, Nc1nc2c(c(N3CCNCC3)n1)CCC1=C2[C@@H]2CCCC[C@@H]2O1 ?
1.56% (inactive)

And the next one, COC(=O)[C@H]1[C@H]2C[C@@H]3c4[nH]c5cc(OC)ccc5c4CCN3C[C@H]2C[C@@H](OC(=O)c2cc(OC)c(OC)c(OC)c2)[C@@H]1OC ?
0.71% (inactive)

And the next one, Cn1c(=O)c2c(ncn2CC(O)CO)n(C)c1=O (configuration not stated) ?
0.25% (inactive)

And the next one, CC(C)N(CCCNC(=O)Nc1ccc(C(C)(C)C)cc1)C[C@H]1O[C@@H](n2cc(Br)c3c(N)ncnc32)[C@H](O)[C@@H]1O ?
-1.5% (inactive)

And the next one, Nn1cnc2cc3ccccc3cc2c1=O ?
0.4% (inactive)

And the next one, c1ccc(C[C@H](c2ccccc2)N2CCCCC2)cc1 (racemic) [1-(1,2-diphenylethyl)piperidine-(+/-)] ?
0.96% (inactive)
